Sourced from the RNAGym collection of RNA variant scans (doi:10.7554/elife.90254)

B1: LINE1-full (parent)
chain: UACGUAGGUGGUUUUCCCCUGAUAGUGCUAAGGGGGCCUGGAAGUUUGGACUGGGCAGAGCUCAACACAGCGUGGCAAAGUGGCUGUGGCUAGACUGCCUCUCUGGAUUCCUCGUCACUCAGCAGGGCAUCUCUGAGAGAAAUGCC

Variants of: B1
Experiment: self-cleavage, relative activity (ratio to wild type); higher = more cleavage; in vitro, sequencing; the parent is a self-cleaving ribozyme
We begin with a simple list: items and their reported self-cleavage.
Lab note: write the figure by itself, no unit.

Here is how some variants turned out for self-cleavage.
INSERT INTO measurements (variant_id, experimental_value) VALUES
  ('C116U A138U', 1.41),
  ('A78G U119C', 1.55),
  ('C17A U134C', 1.11),
  ('G33A U143C', 1.44),
  ('C84G G93A', 0.08),
  ('C51U A136G', 1.34);

[ask] // query self-cleavage value for entry A6G U85A
[reply] 0
